meta.source: PubChem BioAssay (NCI)

System: SK-MEL-5 melanoma
Assay Procedure: NCI tumour cell line growth inhibition, 48 h
For each record, write down the corresponding TGI.
One number for each entry, in µM.

Molecule	TGI [µM]
COc1ccc(-c2nc(-c3ccccn3)c(-c3ccccn3)n2CC(C)C)cc1OC1CCCC1	38.4
Cn1cnc(SC2=C3C(=O)C=C4S[C@H]5C[C@]42c2c(c(O)c4c6c2=[N+]3CCC=6C=N4)N5)c1CC(N)C(=O)O (stereo partly drawn)	26.4
Cc1c2oc3c(C)cc(F)c(C(=O)NC4C(=O)NC(C(C)C)C(=O)N5CCCC5C(=O)N(C)CC(=O)N(C)C(C(C)C)C(=O)OC4C)c3nc-2c(C(=O)NC2C(=O)NC(C(C)C)C(=O)N3CCCC3C(=O)N(C)CC(=O)N(C)C(C(C)C)C(=O)OC2C)c(N)c1=O (stereo not drawn)	0.223
c1ccc2c(c1)Sc1ccccc1N2C1CN2CCC1CC2 (stereo not drawn)	29.9

From here, focus on the item given below.
(Q) State the recorded TGI for this entry: `O=C(c1nn(-c2ccc(Cl)cc2)cc1O)n1nc(C(F)(F)F)cc1-c1ccccc1`
(A) 16.7
